Cited source: PubChem BioAssay (NCATS)

# Test system: WaGa
# PROCEDURE_SUMMARY: qHTS assay to identify novel small-molecules to repurpose for Merkel cell carcinoma treatment (AID 1296009); also: nearly all actives have a fitted effect of over 60% in size
# APPLIED_CONDITIONS: MCC and control cell lines, CellTiter-Glo viability, 72 h; series mostly up to 46 µM
# From the text: MCC is a rare and aggressive neuroendocrine skin cancer with limited treatment options. Approximately 80% of MCCs have the Merkel cell polyomavirus (MCPyV) DNA integrated into the host genome (virus-positive: VP-MCC) and viral oncogenes drive oncogenesis. The remaining MCCs are virus-negative (VN-MCC) and are caused by UV mutagenesis. […] Using cell viability as a readout (CellTiter-Glo assay) we found both overlapping and distinct drugs that can be repurposed for the treatment of VP-MCC and VN-MCC. […]
Records with an inconclusive call do not appear. The source made the active and inactive calls. Calls follow the shape of the dose curve; as a rule, active = well fitted inhibition curve with a large enough effect; inconclusive = small, poorly fitted or top-dose-only effect; inactive = flat fitted curve, though single readings scatter.
MEASUREMENT_LABEL: outcome

As a guide, the following entries are already answered.
| MOLECULE | outcome |
| --- | --- |
| C[N+]1(C)[C@@H]2C[C@@H](OC(=O)C(O)(c3cccs3)c3cccs3)C[C@H]1[C@@H]1O[C@@H]12 | inactive |
| COc1cc(CCc2cc(NC(=O)c3ccc(N4C[C@@H](C)N[C@@H](C)C4)cc3)n[nH]2)cc(OC)c1 | inactive |
| c1ccc(CNc2nc(NCc3ccccc3)c3ccccc3n2)cc1 | inactive |
| Cn1cc(C[C@@H](N)C(=O)O)c2ccccc21 | inactive |

Please find the next molecule below.
Lookup: Fill in: outcome of CN(N=O)C(=O)N[C@H]1C(O)OC(CO)[C@@H](O)[C@H]1O (stereo not given in full) is ___
Found: inactive
